- Test system: HT29
- test conditions: 72 h, relative to DMSO; 10 µM
experimental readout: Relative cell viability (%) (%)
Just the number please, in %, no unit attached.

Param item = Cn1c(=O)cc(N2CCC[C@@H](N)C2)n(Cc2ccccc2C#N)c1=O ; retrieve measured Relative cell viability (%).
101.5

Param item = O=C(O)CCc1nc(-c2ccccc2)c(-c2ccccc2)o1 ; retrieve measured Relative cell viability (%).
63.03

Param item = CC(=O)OCC(=O)[C@@]12OC(C)(C)O[C@@H]1C[C@H]1[C@@H]3C[C@H](F)C4=CC(=O)C=C[C@]4(C)[C@@]3(F)[C@@H](O)C[C@@]12C [Fluocinonide] ; retrieve measured Relative cell viability (%).
56.31
